Taken from PubChem BioAssay AID588413.

The entries below are paired with their reported inhibition.
experiment: Gli-Sufu pathway antagonists, primary screen, luciferase luminescence, Sufu-KO-LIGHT cells, uHTS (AID 588413); details: Sufu-KO-LIGHT fibroblasts, Gli luciferase reporter luminescence; at 5 µM; active compounds read high;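 note: 0% = DMSO-treated cells and 100% = wells with medium but no cells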
Screen size: about 340,000 compounds; about 2,500 (0.74%) were called active. Only a selection was taken, and actives are over-represented in it overall.
Could you give me the number in %? Just the number is fine.

Recorded inhibition, per entry:
{"compound": "CN1CCN(C(=O)N2c3ccccc3CCc3ccccc32)CC1", "inhibition (%)": 0.29}
{"compound": "COC(=O)c1cccc(NC(=O)c2cccc(N3C(=O)CCC3=O)c2)c1", "inhibition (%)": 8.09}
{"compound": "COc1ccc(OC)c(C2C3=C(N=c4s/c(=C\\c5cccc(O)c5)c(=O)n42)c2ccccc2CC3)c1 (configuration not stated)", "inhibition (%)": -4.15}
{"compound": "COc1cccc(NC(=S)NC(=O)c2c(Cl)c(C)nn2C)c1", "inhibition (%)": -24.8}
{"compound": "CC(=O)c1ccc(NC(=O)Cn2c(=O)oc3ccccc32)cc1", "inhibition (%)": 11.6}
{"compound": "O=C(CN1CCCCC1)NC(=O)Nc1ccccc1F", "inhibition (%)": -7.73}

Lookup result for CCCCN(C(=O)c1ccc(S(=O)(=O)N2CCOCC2)cc1)C1CCS(=O)(=O)C1 (configuration not stated) ; measured inhibition: 0.87

Notebook: Cc1cc(C)c(C)c(S(=O)(=O)Nc2cccnc2)c1C , inhibition read as 1.03

Looking up CCC1CCCCN1C(=O)CSc1nc2c(c(=O)n1C)SC(C)C2 (configuration not stated) , I found its inhibition recorded as 1.3

get_value(item= CCCCC(=O)N1CC2(C)CN(C(=O)CCCC)CC(C)(C1)C2=O , readout=inhibition) returns -15.8

The compound listed as CN1C2CCC1CC(NC(=O)c1ccc([N+](=O)[O-])cc1)C2 (configuration not stated) shows inhibition equal to -0.59

Kindly note the recorded inhibition for O=C(Nc1cc2c3c(c1)C1CCCC1CN3CC1CCCC21)c1ccc([N+](=O)[O-])cc1 (configuration not stated) , which is 72.5

// field: inhibition; key: CO/N=C/c1cn(-c2ccc(Cl)cc2)nn1 ; value = -5.6

The reported inhibition of the compound O=C(CS(=O)(=O)c1cn(Cc2cccc(F)c2)c2ccccc12)N1CCCCC1 was 9.01

The compound listed as CCOc1ccccc1NC(=S)C(=C([O-])c1ccc2c(c1)OCCO2)[n+]1ccc(CC)cc1 has a reported inhibition of -43.8

get_value(item= O=C(Nc1ccccc1C(=O)Nc1ccncc1)c1ccc([N+](=O)[O-])cc1 , readout=inhibition) returns -25.8

inhibition for Cc1cc(NC(=O)c2cccc(N3C(=O)CCC3=O)c2)no1 is 98.8

Please fill in: inhibition reported for CNc1ccc(SC#N)cc1 = 60.3

GET /value?item= CC(C)N(C(=O)CN1CCN(S(=O)(=O)c2ccc(Br)s2)CC1)C(C)C &field=inhibition returns -1.96
